Experiment: in vitro
Details: cynomolgus monkey, 20% fecal homogenate (supernatant), anaerobic, pH 6.8
half-life at 20 μM: recorded values
Numeric only. Scale: min

Known half-life at 20 μM results, listed for orientation:
| Compound | half-life at 20 μM [min] |
| --- | --- |
| CC(=O)NCCCC[C@H](NC(=O)[C@](C)(CCCN)NC(=O)[C@H](Cc1ccc2ccccc2c1)NC(=O)[C@H](Cc1ccc(OCCN)cc1)NC(=O)[C@H]1NC(=O)[C@H](CCC(N)=O)NC(=O)[C@H](Cc2c[nH]c3c(C)cccc23)NC(=O)[C@H]([C@@H](C)O)NC(=O)[C@H](CC(N)=O)NC(=O)[C@@H](NC(C)=O)C(C)(C)SSC1(C)C)C(=O)N[C@@H](CC(N)=O)C(=O)NCCC(N)=O [compound 278] | 900 |
| CC(=O)NCCCC[C@@H]1NC(=O)[C@H](Cc2c[nH]c3c(C)cccc23)NC(=O)[C@H]([C@@H](C)O)NC(=O)[C@H](CC(N)=O)NC(=O)[C@@H](NC(C)=O)C(C)(C)SSC(C)(C)[C@@H](C(=O)N[C@@H](Cc2ccc(OCCN)cc2)C(=O)N[C@@H](Cc2ccc3ccccc3c2)C(=O)N[C@@](C)(CCCCN)C(=O)N[C@@H](CCCCNC(C)=O)C(=O)N[C@@H](CC(N)=O)C(=O)N[C@@H](Cc2c[nH]cn2)C(N)=O)NC1=O [compound 248] | 360 |

Let us examine a further case.
State the recorded half-life at 20 μM for this entry: CC(=O)N[C@H]1CCSC[C@@H](C(=O)N[C@@H](Cc2ccc(OCCN)cc2)C(=O)N[C@@H](Cc2ccc3ccccc3c2)C(=O)NC2(C(=O)N[C@@H](CCC(=O)O)C(=O)N[C@@H](CC(N)=O)C(=O)N[C@@H](CC(N)=O)C(N)=O)CCOCC2)NC(=O)[C@H](CCC(N)=O)NC(=O)[C@H](Cc2c[nH]c3c(C)cccc23)NC(=O)[C@H]([C@@H](C)O)NC(=O)[C@H](CCC(N)=O)NC1=O [compound 28]
300
